Target: T1, hANGPTL3(17-460)-His (human, UniProt Q9Y5C1 17-460)
T1 construct: Bought protein (R&D Systems); also called full-length mature human ANGPTL3 with a C-terminal decahistidine tag; Human ANGPTL3 (17-460)-His
T1 sequence: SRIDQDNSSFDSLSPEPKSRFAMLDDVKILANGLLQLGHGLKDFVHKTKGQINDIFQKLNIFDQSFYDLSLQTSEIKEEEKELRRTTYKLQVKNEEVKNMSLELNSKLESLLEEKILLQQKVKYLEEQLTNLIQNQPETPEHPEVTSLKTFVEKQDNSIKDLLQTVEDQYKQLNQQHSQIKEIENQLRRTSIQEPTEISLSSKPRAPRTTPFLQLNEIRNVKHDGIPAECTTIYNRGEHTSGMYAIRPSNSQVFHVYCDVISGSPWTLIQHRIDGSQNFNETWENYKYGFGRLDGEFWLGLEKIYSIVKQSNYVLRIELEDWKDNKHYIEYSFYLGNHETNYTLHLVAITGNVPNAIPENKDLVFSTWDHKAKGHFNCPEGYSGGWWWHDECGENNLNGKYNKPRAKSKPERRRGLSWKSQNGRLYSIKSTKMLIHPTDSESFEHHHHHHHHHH
Test: SPR Biacore, antigen captured, 37C, pH 7.4, HBS-EP
Reported t1/2 values for a set of binders
MEASURED ENDPOINT: t1/2 (min)

1. H4H1292P (antibody, IgG4, V domains shown) VH: QVQLVESGGGLVKPGGSLRLSCAASGFTFSDYYMSWIRQAPGKGLEWVSYISSSGSTIYYADSVKGRFTISRDNAKNSLYLQMNSLRAEDTAVYYCARDSSQLGFDYWGQGTLVTVSS VL: DIQMTQSPSSLSASVGDRVTITCRASQSIISFLNWYQQKPGKAPKLLIYTASSLQSGVPSRFSGSGSGTDFTLTISSLQPEDFATYYCQQTYSNPLTFGGGTKVEIKR | 6
2. H4H1250P (antibody, IgG4, V domains shown) VH: QVQLVESGGGVVQPGRSLRLSCAASGFTFSSYGMHWVRQAPGKGLEWVAVISNDGSNKYYVDSVKGRFTMGRDNSKNTLYLQMNSLRVEDTAVYYCAKGAGTLYYYYYGMDVWGQGTTVTVSS VL: DIQMTQSPSTLSASVGNRVTITCRASQSISSWLAWYQQKPGKAPKFLIYKASSLESGVPSRFSGSGSGTEFTLTITSLQPDDFATYYCQQYNIYSWTFGQGTKVEIK | 10
3. H4H1279P (antibody, IgG4, V domains shown) VH: QVQLVESGGGLVKPGGSLRLSCAASGFTFSDYYMSWIRQAPGKGLEWVSYIGSSGVNMYYADSVKGRFTISRDNAKNSLYLEMNSLRAEDTAVYYCARDSSQLGFDYWGQGTLVTVSS VL: DIQMTQSPSSLSASVGDRVTITCRTSQNIINFLNWYQQKPGKAPKLLIYTTSTLQSGVPSRFSGSGSGTDFTLSINSLQPEDFATYFCQQTYSNPLTFGGGTKLEIKR | 6
4. H1M896N (antibody, V domains shown) VH: EVQLLESGGGLVQPGGSLRLSCAASGFTFSTYAMSWVRQAPGKGLEGVSGISGTGYRTYYADSVKGRFTISRDNSKNSLYLQMNSLRAEDTAVYYCAKDRGLLWFGELTYWGQGTLVTVSS VL: DIQMTQSPSTLSASVGDRVTITCRASQSINNWLAWYQQKPGKAPNLLIYKASSLESGVPSRFSGSGSGTEFTLTISSLQPDDFATYYCQQYNDYWTFGQGTKVEIK | 22
5. H4H1263S (antibody, IgG4, V domains shown) VH: QVQLVQSGGGVVQPGRSLRLSCAASGFTFSTYGMHWVRQAPGKGLEWMAVISFDRGNKYYADSVKGRFTISRDNSKNTLYLQMNSLRAEDTAVYYCAKGGGSGTFYYYYGMDVWGQGTTVTVSS VL: DIQMTQSPSSVSASVGNRVTITCRASQGISSWLAWYHQKPGKVPKVLIYAASSLQSGVPSRFSGSGSGTDFTLTISSLQPEDFATYYCQQANSFPFTFGPGTKVEIKR | 6
6. H4H1248P (antibody, IgG4, V domains shown) VH: QVQLVESGGGVVQPGRSLRLSCAASGFTFSSYGMHWVRQAPGKGLEWVAVISYDGSNKYYADSVKGRFTISRDNSKNTLYLQMNSLRAEDTAVYYCAKVGATTFYYYYGMDVWGQGTTVTVSS VL: DIQMTQSPSSVSAFVGDRVTITCRASQGISSWLAWYQQKPGKAPKLLIYAASSLQSGVPSRFSGSGSGTDFTLTISSLQPEDFATYYCQKANSFPFTFGPGTKVEIK | 6
